// data source = ChEMBL document CHEMBL2146468

# testSystem: Prothrombin (Bos taurus)
# testName: Inhibition of bovine thrombin using Bz-Phe-Val-Arg-pNA as substrate incubated for 5 mins prior to substrate addition measured after 30 mins by spectrophotometric analysis
# pEC50 values compiled below
When answering, recall that pEC50 equals minus log10 of the concentration in mol/L, and write that number alone.

Which value of pEC50 has been reported for C[C@H]1C[C@@H](C(=O)N[C@H](CO)CCCN=C(N)N)N(C(=O)[C@@H](CCc2ccc(O)cc2)NC(=O)[C@H](O)Cc2ccc(O)cc2)C1 [SPUMIGIN A] in the records? 5.68

Queued: C[C@H]1C[C@@H](C(=O)N(C)[C@H](CCCCN)C(=O)O)N(C(=O)[C@@H](CCc2ccc(O)cc2)NC(=O)[C@H](O)Cc2ccc(O)cc2)C1 [SPUMIGIN J] 5.31
